Test system: SJSA-1
assayProcedure: Antiproliferative activity against human SJSA1 cells expressing wild type p53 incubated for 72 hrs by MTS assay
Format: functional, cell-based
conditionInfo: SJSA-1, 72 h
Listed next: entries and their corresponding IC50.
measure: IC50 (µM)

INSERT INTO measurements (compound, subjectoftest, observedresult) VALUES
  ('CC(C)(C)CC1C=C(C(=O)NCCN2CCOCC2)C(c2cccc(Cl)c2F)C12C(=O)Nc1cc(Cl)ccc12 (single isomer, unassigned; (+))', 'SJSA-1', 0.96),
  ('CC(C)(C)CC1C=C(C(=O)O)C(c2cccc(Cl)c2F)C12C(=O)Nc1cc(Cl)ccc12 (single isomer, unassigned; (+))', 'SJSA-1', 7.8),
  ('CC(C)(C)C[C@@H]1C=C(C(=O)O)[C@H](c2cccc(Cl)c2F)[C@]12C(=O)Nc1cc(Cl)ccc12 (racemic)', 'SJSA-1', 7.44),
  ('CC(C)(C)C[C@@H]1C=C(C(=O)NCCN2CCOCC2)[C@H](c2cccc(Cl)c2F)[C@]12C(=O)Nc1cc(Cl)ccc12 (racemic)', 'SJSA-1', 7.5),
  ('COc1ccc(C2=N[C@@H](c3ccc(Cl)cc3)[C@@H](c3ccc(Cl)cc3)N2C(=O)N2CCNC(=O)C2)c(OC(C)C)c1', 'SJSA-1', 1.44);
